# TARGET: NADPH oxidase 5 (Homo sapiens) (UniProt Q96PH1)
# Sequence (Q96PH1 whole entry, looked up): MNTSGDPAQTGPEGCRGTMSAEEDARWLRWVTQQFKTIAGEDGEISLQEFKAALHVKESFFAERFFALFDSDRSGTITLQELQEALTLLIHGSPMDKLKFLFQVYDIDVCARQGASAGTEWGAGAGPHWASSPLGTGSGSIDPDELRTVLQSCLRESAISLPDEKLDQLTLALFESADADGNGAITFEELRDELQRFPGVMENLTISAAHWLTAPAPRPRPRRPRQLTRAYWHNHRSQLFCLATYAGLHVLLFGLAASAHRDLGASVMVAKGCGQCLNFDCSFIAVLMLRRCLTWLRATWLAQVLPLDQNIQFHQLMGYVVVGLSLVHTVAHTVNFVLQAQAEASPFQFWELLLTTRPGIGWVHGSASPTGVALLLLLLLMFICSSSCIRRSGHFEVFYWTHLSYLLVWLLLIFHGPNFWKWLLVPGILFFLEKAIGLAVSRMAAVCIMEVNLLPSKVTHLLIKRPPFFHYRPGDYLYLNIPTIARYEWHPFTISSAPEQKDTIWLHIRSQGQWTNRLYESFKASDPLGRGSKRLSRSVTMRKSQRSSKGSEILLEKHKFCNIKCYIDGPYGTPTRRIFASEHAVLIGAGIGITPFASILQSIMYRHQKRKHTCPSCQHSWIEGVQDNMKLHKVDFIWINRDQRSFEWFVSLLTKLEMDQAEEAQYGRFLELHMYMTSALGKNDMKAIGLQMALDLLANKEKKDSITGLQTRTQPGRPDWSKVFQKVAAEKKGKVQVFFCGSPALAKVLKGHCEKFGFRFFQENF
# TEST: NOX5-dependent H2O2 signal modulators, primary screen, NOX inhibitor project, cell-based, HEK293-NOX5, Amplex Red fluorescence (AID 1161)
# CONDITION INFO: HEK293-NOX5, ionomycin, 45 min, higher = more signal
Documented z-score across a set of compounds
Answer as a number with no unit attached.

Below, 6 compounds whose answers are already recorded.
The compound CCCCN1CC=CC23O[C@@H]4C=CCOC(=O)[C@@H]4[C@H]2C(=O)N(CCCO)[C@@H]3C1=O (stereo not given in full) on NADPH oxidase 5 (Homo sapiens) (UniProt Q96PH1): z-score was -0.234

The compound C=C(CCCC)C(=O)CC[C@@H](OC(=O)c1cccnc1)c1ccccc1OCCO on NADPH oxidase 5 (Homo sapiens) (UniProt Q96PH1): z-score was -1.44

The compound COCCOC(=O)N1C(=O)[C@@]2(c3cc(C#CC4(O)CCCCCC4)ccc31)[C@H](c1ccccc1OCCO)N1[C@H](c3ccccc3)[C@H](c3ccccc3)OC(=O)[C@H]1[C@@H]2C(N)=O on NADPH oxidase 5 (Homo sapiens) (UniProt Q96PH1): z-score was -0.269

The compound O=C1NC(=O)C2C1C=CC(C(O)c1ccc3c(c1)OCO3)N2Nc1ccccn1 (stereo not given) on NADPH oxidase 5 (Homo sapiens) (UniProt Q96PH1): z-score was -1.73

The compound CC(C)CCC[C@@H](C)[C@H]1CC[C@@]2(C)C3=C(CC[C@]12C)[C@@]1(C)CC[C@H](OC(=O)c2ccc(Br)cc2)C(C)(C)C1CC3 (stereo not given in full) on NADPH oxidase 5 (Homo sapiens) (UniProt Q96PH1): z-score was 0.929

The compound O=C1OCC=C[C@H]2OC34C=CCN(Cn5nnc6ccccc65)C(=O)[C@H]3N(CCCCCCO)C(=O)[C@@H]4[C@@H]12 (stereo not given in full) on NADPH oxidase 5 (Homo sapiens) (UniProt Q96PH1): z-score was 2.24

---
The compound C=CCN1C(=O)[C@@]2(O[C@@H](CCn3cc([C@H](O)c4ccccc4)nn3)[C@H]([Si](C)(C)c3ccc(OC)cc3)[C@H]2C)c2ccccc21 on NADPH oxidase 5 (Homo sapiens) (UniProt Q96PH1): z-score was -1.6

The compound CC(C)C(O)C1C=CC2C(=O)N(C)C(=O)C2N1N(c1ccccc1)c1ccccc1 (stereo not given) on NADPH oxidase 5 (Homo sapiens) (UniProt Q96PH1): z-score was -0.828

The compound COC(=O)[C@@]1(Cc2ccc(OC)cc2)[C@H]2c3cc(C(=O)N(C)C)n(Cc4ccccc4)c3C[C@H]2CN1C(=O)c1ccccc1 on NADPH oxidase 5 (Homo sapiens) (UniProt Q96PH1): z-score was 2.49

---

Documented composite z-score across a set of compounds
# TEST: COS7 lysate on small-molecule microarray, probe aHis, 635 nm (AID 1123);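 further: z-score combines 667nm fluorescence intensity with signal-to-noise per printed compound spot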
# CONDITION INFO: COS7 cell lysate, fluorescence, higher = more signal

Below, 6 compounds whose answers are already recorded.
The compound listed as C=CC[C@H](OC(=O)Nc1ccc(OC)cc1)c1ccc(O)c2ccccc12 shows composite z-score equal to 0.865

The compound listed as CC(CO)N1C(=O)[C@@H]2C3C(=O)OCCC/C=C\[C@H]3OC23C=CCN(Cn2nnc4ccccc42)C(=O)[C@@H]13 (some centres undefined) shows composite z-score equal to -0.202

The compound listed as C=CCNC(=O)[C@@H]1[C@H]2C(=O)O[C@H](c3ccccc3)[C@H](c3ccccc3)N2[C@H](c2ccccc2OCCO)[C@@]12C(=O)N(C(=O)OCCOC)c1ccc(C#CC3=CCCCC3)cc12 shows composite z-score equal to 1.76

The compound listed as CO[C@H]1O[C@H](CO)[C@@H](OC(=O)Nc2ccc(Oc3ccccc3)cc2)[C@H](OC(=O)Nc2ccccc2-c2ccccc2)[C@@H]1OC(=O)Nc1ccccc1-c1ccccc1 shows composite z-score equal to 2.31

The compound listed as CC(C)CCC[C@@H](C)[C@H]1CC[C@@]2(C)C3=C(CC[C@]12C)[C@@]1(C)CC[C@H](OC(=O)c2ccc(Br)cc2)C(C)(C)C1CC3 (some centres undefined) shows composite z-score equal to -0.28

The compound listed as C[C@@H]1ON(c2ccc(C(=O)OC(C)(C)C)cc2)[C@H](c2ccc(Br)cc2)[C@H]1C(=O)N1C(=O)OC[C@H]1Cc1ccccc1 shows composite z-score equal to 1.86

---
The compound listed as Cc1ccc(S[C@]2(C(=O)NCC(F)(F)F)CC(=O)N(Cc3ccccc3)[C@@H]2c2ccc(CO)cc2)cc1 shows composite z-score equal to 0.973

The compound listed as COc1c(C)cc(-c2cc3c(c(Cc4ccccc4)n2)[Si](C(C)C)(C(C)C)OC3)cc1C shows composite z-score equal to 0.0246

The compound listed as COCCCNC(=O)[C@@]1(Sc2ccc(C)cc2)CC(=O)N(Cc2cc(C(F)(F)F)cc(C(F)(F)F)c2)[C@@H]1c1ccc(CO)cc1 shows composite z-score equal to 2.41

The compound listed as CC(C)(C)N1CC=CC23O[C@@H]4C=CCOC(=O)[C@@H]4[C@H]2C(=O)N(CCCO)[C@@H]3C1=O (some centres undefined) shows composite z-score equal to 0.216
